Below, each entry is listed alongside its reported SPOT peptide array binding signal intensity.
Molecular target: ScMyo5
Experiment: SPOT peptide array binding signal intensity (averaged, normalized) (arbitrary units (background-subtracted, floor 0; scale differs between SH3 domains)); higher = stronger binding of the SH3 domain to the peptide
Answer with the value's number alone.

IN: Return SPOT peptide array binding signal intensity for the following binder: `LKQRFFLMFPKSIIW`
OUT: 4

IN: Return SPOT peptide array binding signal intensity for the following binder: `QDKEGIPPDQQRLIF`
OUT: 7

IN: Return SPOT peptide array binding signal intensity for the following binder: `HPRFVSPRIPSRIVK`
OUT: 32.5
